study-target: T1, human GITR-Fc fusion protein (human, UniProt Q9Y5U5 26-162)
T1 construct: extracellular domain; also called hGITR-Fc; recombinant human GITR-Fc; not shown: Fc part
T1 sequence (looked up): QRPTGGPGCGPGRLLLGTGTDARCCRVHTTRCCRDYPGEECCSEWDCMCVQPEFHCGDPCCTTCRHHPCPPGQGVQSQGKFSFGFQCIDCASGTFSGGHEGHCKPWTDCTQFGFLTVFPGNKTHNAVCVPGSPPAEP
assay-name: SPR (BIAcore 2000), mAb captured on anti-mouse Fc, antigen injected
Quick list: Kd per entry.
Unit nM implied. Number only.

anti-GITR antibody clone 706 (antibody, V domains shown, Murine hybridoma antibody; also called 706-GITR2; 706 GITR-2) VH: EVQLQQSGTVLARPGASVKMSCEASGYSFTTYWMHWIKQRPGQGLEWIGAIYPGNSDTGYNQKFKGKAKLTAVTSASTAYMELSSLTNEDSAVYYCTRTSTYPHFDYWGQGTTLTVSS VL: DILLTQSPAILSVSPGERVSFSCRASQSIGTSIHWYQQRTNGSPRLLIKYASESISGIPSRFSGSGSGTDFTLNINSVESEDIADYYCQQTNNWPLTFGAGTKLELK    5.95

// recorded Kd for anti-GITR antibody clone 1718 (antibody, V domains shown, Murine hybridoma antibody; also called 1718-GITR2; 1718 GITR-2) VH: QVQVQQSGPELVKPGASVRISCKASDYTFTNYYIHWVRQRPGQGLEWLGWIYPGKGYTNYNEKFKGKATLTADKSSSTAYMQFSSLTSEDSAVYFCASGYGNYYFPYWGQGTLVTVSA VL: IQMTQSSSYLSVSLGGRVTITCKASDHIKNWLAWYQQKPGNVPRLLMSAATSLETGFPSRFSGSGSGKDFTLTITSLQTEDVATYYCQQYWSTPWTFGGGTKLEIK : 2.57

Where do the numbers come from? From patent US20130108641A1.
